Biodistribution: PIP tumor values by entry
tested on: PIP tumor and PC3 tumor; assay: Biodistribution of 125I labeled compounds 17, 18, 26 and 27 in tumor bearing nude mice; format: in vivo; details: 4 h
Response body: numeric value in % ID/g, unit text excluded.

Please review the following examples before continuing.
[
  {
    "compound": "O=C(O)CC[C@H](NC(=O)N[C@@H](CCCCNC(=O)[C@H](Cc1ccccc1)NC(=O)COc1ccc(C[C@H](NC(=O)[C@H](CCC(=O)O)NC(=O)[C@H](CCC(=O)O)NC(=O)c2ccc([125I])cc2)C(=O)O)cc1)C(=O)O)C(=O)O [[^125I]27]",
    "obsValue": 17.36
  },
  {
    "compound": "O=C(O)CC[C@H](NC(=O)N[C@@H](CCCCNC(=O)[C@H](Cc1ccccc1)NC(=O)COc1ccc(C[C@H](NC(=O)[C@H](CCC(=O)O)NC(=O)c2ccc([125I])cc2)C(=O)O)cc1)C(=O)O)C(=O)O [[^125I]26]",
    "obsValue": 14.32
  },
  {
    "compound": "O=C(O)CC[C@H](NC(=O)N[C@@H](CCCCNC(=O)[C@H](Cc1ccccc1)NC(=O)[C@H](CCC(=O)O)NC(=O)c1ccc([125I])cc1)C(=O)O)C(=O)O [[^125I]17]",
    "obsValue": 5.17
  }
]

Please report the recorded Biodistribution: PIP tumor for O=C(O)CC[C@H](NC(=O)N[C@@H](CCCCNC(=O)[C@H](Cc1ccccc1)NC(=O)[C@H](CCC(=O)O)NC(=O)[C@H](CCC(=O)O)NC(=O)c1ccc([125I])cc1)C(=O)O)C(=O)O [[^125I]18] .
15.27

====

Biodistribution: Bladder* values by entry
tested on: PIP tumor and PC3 tumor; assay: Biodistribution of 125I labeled compounds 17, 18, 26 and 27 in tumor bearing nude mice; type: in vivo; conditions: 1 h, organ with content

Biodistribution: Bladder* of O=C(O)CC[C@H](NC(=O)N[C@@H](CCCCNC(=O)[C@H](Cc1ccccc1)NC(=O)COc1ccc(C[C@H](NC(=O)[C@H](CCC(=O)O)NC(=O)[C@H](CCC(=O)O)NC(=O)c2ccc([125I])cc2)C(=O)O)cc1)C(=O)O)C(=O)O [[^125I]27] on PIP tumor and PC3 tumor?
53.39 ± 19.82 % ID/g

====

Biodistribution: Lung values by entry
test system: PIP tumor and PC3 tumor; assay: Biodistribution of 125I labeled compounds 17, 18, 26 and 27 in tumor bearing nude mice; format: in vivo; details: 1 h
Response body: numeric value in % ID/g, unit text excluded.

Please report the recorded Biodistribution: Lung for O=C(O)CC[C@H](NC(=O)N[C@@H](CCCCNC(=O)[C@H](Cc1ccccc1)NC(=O)COc1ccc(C[C@H](NC(=O)[C@H](CCC(=O)O)NC(=O)[C@H](CCC(=O)O)NC(=O)c2ccc([125I])cc2)C(=O)O)cc1)C(=O)O)C(=O)O [[^125I]27] .
3.53

Please report the recorded Biodistribution: Lung for O=C(O)CC[C@H](NC(=O)N[C@@H](CCCCNC(=O)[C@H](Cc1ccccc1)NC(=O)COc1ccc(C[C@H](NC(=O)[C@H](CCC(=O)O)NC(=O)c2ccc([125I])cc2)C(=O)O)cc1)C(=O)O)C(=O)O [[^125I]26] .
3.08

Please report the recorded Biodistribution: Lung for O=C(O)CC[C@H](NC(=O)N[C@@H](CCCCNC(=O)[C@H](Cc1ccccc1)NC(=O)[C@H](CCC(=O)O)NC(=O)[C@H](CCC(=O)O)NC(=O)c1ccc([125I])cc1)C(=O)O)C(=O)O [[^125I]18] .
3.16

Please report the recorded Biodistribution: Lung for O=C(O)CC[C@H](NC(=O)N[C@@H](CCCCNC(=O)[C@H](Cc1ccccc1)NC(=O)[C@H](CCC(=O)O)NC(=O)c1ccc([125I])cc1)C(=O)O)C(=O)O [[^125I]17] .
1.15
